Test: Pharmacokinetics of probe drug cocktail (bupropion, midazolam) and their metabolites before and after QHS-PQ
Format: in vivo, human
Details: human, plasma, oral, row '1-day': probe cocktail before QHS-PQ (day -14)
Description: The chromatography was performed at 22°C. The mobile phase consisted of B (acetonitrile) and A (0.1% formic acid in water), which increased linearly from 20% B to 90% B during 7 min before column re-equilibration at a flow rate of 0.3 mL/min. Plasma samples were subjected to a protein precipitation extraction process. […] Plasma samples were diluted with blank plasma and reanalysed when the concentration of any analyte was higher than the upper limit of quantification. […]
Below: a set of entries, each annotated with reported Cmax.
Write the answer as a number in nM, unit excluded.

1. CC(NC(C)(C)C)C(=O)c1cccc(Cl)c1 (centres unmarked) : 328

[in] Which Cmax value belongs to `Cc1ncc2n1-c1ccc(Cl)cc1C(c1ccccc1F)=NC2` ?
[out] 206

###

test: Pharmacokinetics of QHS and its phase I/II metabolites in plasma after oral QHS-PQ (Artequick); conditions: human, in vivo, po, C max, 1-day oral QHS-PQ, mean ± sd
ASSAY ENDPOINT: Cmax (nM)
Write the answer as a number in nM, unit excluded.

[in] Which Cmax value belongs to C[C@@H]1CC[C@H]2[C@@H](C)C(=O)O[C@@H]3O[C@@]4(C)CC[C@@H]1[C@]32O4 [DeoxyQHS, Deoxyartemisinin] ?
[out] 71

[in] Which Cmax value belongs to C[C@@H]1CC[C@H]2[C@@H](C)C(=O)O[C@@H]3O[C@@]4(C)CC[C@@H]1[C@]32OO4 [QHS, Artemisinin, reference compound] ?
[out] 304

###

experiment: Pharmacokinetics of probe drug cocktail (bupropion, midazolam) and their metabolites before and after QHS-PQ; format: in vivo, human; details: human, plasma, oral, row '2-day': probe cocktail after second dose of QHS-PQ
Below: a set of entries, each annotated with reported Cmax.
Write the answer as a number in nM, unit excluded.

1) Cc1ncc2n1-c1ccc(Cl)cc1C(c1ccccc1F)=NC2 : 305

Now turn to the next compound.
[in] Which Cmax value belongs to CC(NC(C)(C)C)C(=O)c1cccc(Cl)c1 (centres unmarked) ?
[out] 306

###

test: Pharmacokinetics of QHS and its phase I/II metabolites in plasma after oral QHS-PQ (Artequick); conditions: human, plasma, po, CL/F, 1-day oral QHS-PQ, dose/AUC0-t, mean ± sd
ASSAY ENDPOINT: CL/F (L/h/kg)
Write the answer as a number in L/h/kg, unit excluded.

[in] Which CL/F value belongs to C[C@@H]1CC[C@H]2[C@@H](C)C(=O)O[C@@H]3O[C@@]4(C)CC[C@@H]1[C@]32OO4 [QHS, Artemisinin, reference compound] ?
[out] 9.8

###

assay: Pharmacokinetics of QHS and its phase I/II metabolites in plasma after oral QHS-PQ (Artequick); conditions: human, in vivo, po, T max, 2-day oral QHS-PQ, value (range)
ASSAY ENDPOINT: Tmax

1) C[C@@H]1CC[C@H]2[C@@H](C)C(=O)O[C@@H]3O[C@@]4(C)CC[C@@H]1[C@]32O4 [DeoxyQHS, Deoxyartemisinin] : 2.3 h

Now turn to the next compound.
[in] Which Tmax value belongs to C[C@@H]1CC[C@H]2[C@@H](C)C(=O)O[C@@H]3O[C@@]4(C)CC[C@@H]1[C@]32OO4 [QHS, Artemisinin, reference compound] ?
[out] 1.4 h

###

test: Pharmacokinetics of probe drug cocktail (bupropion, midazolam) and their metabolites before and after QHS-PQ; type: in vivo, human; conditions: human, plasma, oral, row '2-day': probe cocktail after second dose of QHS-PQ; read-out: CL/F (converted)
Below: a set of entries, each annotated with reported CL/F.
Write the answer as a number in mL/min/kg, unit excluded.

1. CC(NC(C)(C)C)C(=O)c1cccc(Cl)c1 (centres unmarked) : 63

Now turn to the next molecule.
[in] Which CL/F value belongs to `Cc1ncc2n1-c1ccc(Cl)cc1C(c1ccccc1F)=NC2` ?
[out] 11.7

###

assay: Pharmacokinetics of probe drug cocktail (bupropion, midazolam) and their metabolites before and after QHS-PQ; type: in vivo, human; conditions: listed as '2-day': probe cocktail after second dose of QHS-PQ
ASSAY ENDPOINT: Cmax (nM)
Write the answer as a number in nM, unit excluded.

[in] Which Cmax value belongs to OCc1ncc2n1-c1ccc(Cl)cc1C(c1ccccc1F)=NC2 [OH-MDZ, α-hydroxymidazolam] ?
[out] 243

###

Below: a set of entries, each annotated with reported MRT.
Assay: Pharmacokinetics of QHS and its phase I/II metabolites in plasma after oral QHS-PQ (Artequick)
Details: human, in vivo, po, MRT, 2-day oral QHS-PQ, mean ± sd
Procedure: The chromatography was performed at 22°C. The mobile phase consisted of acetonitrile and 5 mM aqueous ammonium acetate containing 0.1% (v/v) formic acid, delivered at a flow rate of 0.35 mL/min. […] The peak plasma concentration (Cmax) and time-to-peak concentration (Tmax) were obtained from experimental observations. The other pharmacokinetic parameters were analysed by non-compartmental model using the program TOPFIT (version 2.0; Thomae GmbH, Germany). […] Results were expressed as mean ± SD. […]
# output: numeric value plus its unit

1. C[C@@H]1CC[C@H]2[C@@H](C)C(=O)O[C@@H]3O[C@@]4(C)CC[C@@H]1[C@]32O4 : 6.2 h

Now turn to the next compound.
[in] Which MRT value belongs to C[C@@H]1CC[C@H]2[C@@H](C)C(=O)O[C@@H]3O[C@@]4(C)CC[C@@H]1[C@]32OO4 [QHS, Artemisinin, reference compound] ?
[out] 2.9 h

###

assay: Pharmacokinetics of probe drug cocktail (bupropion, midazolam) and their metabolites before and after QHS-PQ; assay type: in vivo, human; conditions: human, plasma, oral, row '2-day': probe cocktail after second dose of QHS-PQ; read-out: MRT
Below: a set of entries, each annotated with reported MRT.
Write the answer as a number in h, unit excluded.

1. CC(NC(C)(C)C)C(=O)c1cccc(Cl)c1 (centres unmarked) [BUP, Bupropion] : 6.1

Now turn to the next molecule.
[in] Which MRT value belongs to Cc1ncc2n1-c1ccc(Cl)cc1C(c1ccccc1F)=NC2 [MDZ, midazolam] ?
[out] 4.2

###

Assay: Pharmacokinetics of QHS and its phase I/II metabolites in plasma after oral QHS-PQ (Artequick)
Conditions: human, in vivo, po, C max, 2-day oral QHS-PQ, mean ± sd
Procedure: The chromatography was performed at 22°C. The mobile phase consisted of acetonitrile and 5 mM aqueous ammonium acetate containing 0.1% (v/v) formic acid, delivered at a flow rate of 0.35 mL/min. […] The peak plasma concentration (Cmax) and time-to-peak concentration (Tmax) were obtained from experimental observations. The other pharmacokinetic parameters were analysed by non-compartmental model using the program TOPFIT (version 2.0; Thomae GmbH, Germany). […] Results were expressed as mean ± SD. […]
Below: a set of entries, each annotated with reported Cmax.
Write the answer as a number in nM, unit excluded.

1. C[C@@H]1CC[C@H]2[C@@H](C)C(=O)O[C@@H]3O[C@@]4(C)CC[C@@H]1[C@]32O4 [DeoxyQHS, Deoxyartemisinin] : 55.6

[in] Which Cmax value belongs to C[C@@H]1CC[C@H]2[C@@H](C)C(=O)O[C@@H]3O[C@@]4(C)CC[C@@H]1[C@]32OO4 [QHS, Artemisinin, reference compound] ?
[out] 221

###

Experiment: Pharmacokinetics of probe drug cocktail (bupropion, midazolam) and their metabolites before and after QHS-PQ
Format: in vivo, human
Details: human, plasma, oral, row '1-day': probe cocktail before QHS-PQ (day -14); read-out: MRT
Method: The chromatography was performed at 22°C. The mobile phase consisted of B (acetonitrile) and A (0.1% formic acid in water), which increased linearly from 20% B to 90% B during 7 min before column re-equilibration at a flow rate of 0.3 mL/min. Plasma samples were subjected to a protein precipitation extraction process. […] Plasma samples were diluted with blank plasma and reanalysed when the concentration of any analyte was higher than the upper limit of quantification. […]
Below: a set of entries, each annotated with reported MRT.
Write the answer as a number in h, unit excluded.

1) Cc1ncc2n1-c1ccc(Cl)cc1C(c1ccccc1F)=NC2 [MDZ, midazolam] : 4.1

Now turn to the next compound.
[in] Which MRT value belongs to CC(NC(C)(C)C)C(=O)c1cccc(Cl)c1 (centres unmarked) [BUP, Bupropion] ?
[out] 6.8

###

test: Pharmacokinetics of QHS and its phase I/II metabolites in plasma after oral QHS-PQ (Artequick); settings: human, in vivo, po, MRT, 1-day oral QHS-PQ, mean ± sd
ASSAY ENDPOINT: MRT (h)
Write the answer as a number in h, unit excluded.

1) C[C@@H]1CC[C@H]2[C@@H](C)C(=O)O[C@@H]3O[C@@]4(C)CC[C@@H]1[C@]32O4 : 7.1

Now turn to the next compound.
[in] Which MRT value belongs to C[C@@H]1CC[C@H]2[C@@H](C)C(=O)O[C@@H]3O[C@@]4(C)CC[C@@H]1[C@]32OO4 [QHS, Artemisinin, reference compound] ?
[out] 3.2
